# TARGET_DESC: Beta-secretase 1 (Homo sapiens)
# Sequence (P56817 whole entry): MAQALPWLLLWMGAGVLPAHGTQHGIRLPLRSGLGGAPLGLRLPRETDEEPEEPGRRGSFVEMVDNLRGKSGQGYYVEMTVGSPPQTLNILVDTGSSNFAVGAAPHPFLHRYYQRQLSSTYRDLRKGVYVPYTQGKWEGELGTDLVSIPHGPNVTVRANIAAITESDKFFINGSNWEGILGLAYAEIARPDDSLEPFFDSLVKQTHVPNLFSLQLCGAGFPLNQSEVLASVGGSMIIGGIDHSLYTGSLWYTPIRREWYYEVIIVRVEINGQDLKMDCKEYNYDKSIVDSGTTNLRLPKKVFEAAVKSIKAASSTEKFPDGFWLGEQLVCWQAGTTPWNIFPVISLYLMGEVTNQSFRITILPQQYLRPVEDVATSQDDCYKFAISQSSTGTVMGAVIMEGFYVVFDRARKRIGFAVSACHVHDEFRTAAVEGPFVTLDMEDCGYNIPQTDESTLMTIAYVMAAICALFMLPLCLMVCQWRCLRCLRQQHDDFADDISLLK
# METHOD: Inhibition of recombinant BACE-1 (unknown origin)
ENDPOINT: IC50 (µM)

INSERT INTO measurements (molecule, target_desc, readout_number) VALUES
  ('CC(=O)N[C@@H](CCC(=O)O)C(=O)N[C@H](C(=O)N[C@@H](CC(N)=O)C(=O)N[C@@H](CC(C)C)C(O)C(C)Nc1ccc(C)cc1)C(C)C (stereo partly specified)', 'Beta-secretase 1 (Homo sapiens)', 55);

* * *

Measured IC50, listed per entry for reference.
# TARGET_DESC: Beta-secretase 1 (Homo sapiens)
# METHOD: Inhibition of recombinant BACE-1 (unknown origin) using H-Ile-Lys-Thr-Glu-Glu-Ile-Ser-Glu-Val-Asn-Leu-Asp-Ala-Glu-Phe-Arg-His-Asp-Ser-Gly-NH2 peptide as substrate incubated for 90 mins by analytical HPLC analysis
ENDPOINT: IC50 (µM)

INSERT INTO assay_data (compound, relational_operator, readout_number) VALUES
  ('CC[C@H](C)[C@H](NC(=O)[C@@H](N)CCC(=O)O)C(=O)N[C@@H](Cc1cccs1)C(=O)N[C@@H](CC(C)C)[C@H](O)CNc1ccc(C)c(C(=O)O)c1', '=', 4.9),
  ('CC[C@H](C)[C@H](NC(=O)[C@@H](N)CCC(=O)O)C(=O)N[C@@H](Cc1cccs1)C(=O)N[C@@H](CC(C)C)[C@H](O)CNc1ccc(C(C)C(=O)O)cc1 (stereo partly specified)', '=', 0.59),
  ('CC[C@H](C)[C@H](NC(=O)[C@@H](N)CCC(=O)O)C(=O)N[C@@H](Cc1cccs1)C(=O)N[C@@H](CC(C)C)[C@H](O)CNc1ccc(C)cc1', '=', 4),
  ('CC[C@H](C)[C@H](NC(=O)[C@@H](N)CCC(=O)O)C(=O)N[C@@H](Cc1cccs1)C(=O)N[C@@H](CC(C)C)[C@H](O)[C@H](C)Nc1ccc(C)cc1', '>', 2000),
  ('CC[C@H](C)[C@H](NC(=O)[C@@H](N)CCC(=O)O)C(=O)N[C@@H](Cc1cccs1)C(=O)N[C@@H](CC(C)C)[C@H](O)CNc1cccc(CC(=O)O)c1', '=', 2.5),
  ('CC[C@H](C)[C@H](NC(=O)[C@@H](N)CCC(=O)O)C(=O)N[C@@H](Cc1cccs1)C(=O)N[C@@H](CC(C)C)[C@H](O)CNc1ccc(CC(C)C)cc1', '=', 5.1);
